- Test system: WPMY1-TP53BP1-CLTA
- Test description: lowest phenotypically active concentration; higher = less potent
- Assay conditions: treatment time: 24 h
Parameter lowest phenotypically active concentration: see the listing below.
Write the number in µM without appending the unit.

# example entries with known answers
1. CC(C)OC(=O)c1cc2c(OCC(O)CNC(C)(C)C)cccc2[nH]1 (centres undefined)
9
2. O=C(/C=C/c1ccc2ccccc2n1)c1ccncc1
9
3. Cc1cccc(-c2n[nH]cc2-c2ccc(F)c(-c3cnn(CCO)c3)c2)n1
9
4. C#CCN[C@@H]1CCc2ccccc21
9

Next item in the queue.
// compound "O=c1c(-c2ccc(O)cc2)coc2cc(O)cc(O)c12" , assay WPMY1-TP53BP1-CLTA, lowest phenotypically active concentration value: 9
